Values compiled from patent US5750531A.

- Target Entity: proton pump(H^+ /K^+ ATPase)
- Test Method Notes: Inhibition of proton pump(H^+ /K^+ ATPase) activity
- Conditions Used: pH 6.0, 37° C., 30 minutes preincubation and 30 minutes reaction; read-out: IC50 Test compound
pIC50: −log10 of the molar value. Where a name gives a salt, the structure may show the parent alone.

Compound | Target Entity | pIC50
CCc1nc(Nc2ccc(F)cc2C)nc(N2CCc3ccccc3C2C)c1C.Cl (stereo not shown) [Example 26, hydrochloride] | proton pump(H^+ /K^+ ATPase) | 6.10
Cc1nc(Nc2ccc(F)cc2)nc(N2CCc3ccccc3C2C)c1C.Cl (stereo not shown) [Example 15, hydrochloride] | proton pump(H^+ /K^+ ATPase) | 5.80
Cc1cc(F)ccc1Nc1nc(C)c(C)c(N2CCc3ccccc3C2)n1.Cl [Example 41, hydrochloride] | proton pump(H^+ /K^+ ATPase) | 6.22
Cc1cc(F)ccc1Nc1nc2c(c(N3CCc4ccccc4C3C)n1)CCC2 (stereo not shown) [Example 29, hydrochloride] | proton pump(H^+ /K^+ ATPase) | 6.40

---

IC50: recorded values
- Target Entity: proton pump(H^+ /K^+ ATPase)
- Test Method Notes: Inhibition of proton pump(H^+ /K^+ ATPase) activity
- Conditions Used: pH 6.0, 37° C., 30 minutes preincubation and 30 minutes reaction; read-out: IC50 Test compound

Compound | Target Entity | IC50 (nM)
CCc1nc(Nc2ccc(F)cc2)nc(N2CCc3ccccc3C2C)c1C.Cl (centres unmarked) [Example 27, hydrochloride] | proton pump(H^+ /K^+ ATPase) | 2100
Cc1ccccc1Nc1nc2c(c(N3CCc4ccccc4C3)n1)CCCC2.Cl [Example 51, hydrochloride] | proton pump(H^+ /K^+ ATPase) | 1100
Cc1nc(Nc2ccccc2)nc(N2CCc3ccccc3C2C)c1C.Cl (centres unmarked) [Example 21, hydrochloride] | proton pump(H^+ /K^+ ATPase) | 1500
Cc1cc(N2CCc3ccsc3C2C)nc(Nc2ccc(F)cc2C)n1.Cl (centres unmarked) [Example 52, hydrochloride] | proton pump(H^+ /K^+ ATPase) | 500
Cc1cc(F)ccc1Nc1nc(N2CCc3ccccc3C2)nc(C)c1C.Cl [Example 74, hydrochloride] | proton pump(H^+ /K^+ ATPase) | 500
Cc1cc(F)ccc1Nc1nc(N2CCc3ccccc3C2)nc2c1CCCC2.Cl [Example 83, hydrochloride] | proton pump(H^+ /K^+ ATPase) | 1400

---

IC50: recorded values
- Target Entity: proton pump(H^+ /K^+ ATPase)
- Test Method Notes: Inhibition of proton pump(H^+ /K^+ ATPase) activity
- Conditions Used: pH 6.0, 37° C., 30 minutes preincubation and 30 minutes reaction; read-out: IC50 Test compound
Structures can show the parent of a compound that is named as a salt.
Measure Name: IC50 (nM)

Compound | Measure Name | Sign Qualifier | Experimental Result
Cc1cc(N2CCc3ccccc3C2C)nc(Nc2ccc(F)cc2C)n1.Cl (centres unmarked) [Example 2, hydrochloride] | IC50 | = | 900
CCc1cc(N2CCc3ccccc3C2)nc(N(C)c2ccccc2)n1.Cl [Example 39, hydrochloride] | IC50 | > | 15000
Cc1nc(N2CCc3ccccc3[C@H]2C)nc(Nc2ccc(F)cc2)c1C.Cl [Example 69, hydrochloride] | IC50 | = | 2900
Cc1cc(F)ccc1Nc1nc(N2CCc3ccccc3C2C)nc2c1CCC2 (centres unmarked) [Example 81, hydrochloride] | IC50 | = | 400
Cc1cc(Nc2ccc(F)cc2C)nc(N2CCc3ccccc3C2C)n1.Cl (centres unmarked) [Example 57, hydrochloride] | IC50 | = | 3300
Cc1cc(N2CCc3ccccc3C2)nc(Nc2ccc(F)cc2C)n1.Cl [Example 34, hydrochloride] | IC50 | = | 1000

---

- Target Entity: proton pump(H^+ /K^+ ATPase)
- Test Method Notes: Inhibition of proton pump(H^+ /K^+ ATPase) activity
- Conditions Used: pH 6.0, 37° C., 30 minutes preincubation and 30 minutes reaction; read-out: IC50 Test compound
Where a name gives a salt, the structure may show the parent alone.

Compound | IC50
Cc1cc(F)ccc1Nc1nc(N2CCc3ccccc3[C@@H]2C)nc(C)c1C.Cl [Example 67, hydrochloride] | 1300 nM
CCc1cc(Nc2ccc(F)cc2C)nc(N2CCc3ccccc3C2C)n1.Cl (stereo not shown) [Example 61, hydrochloride] | ~12500 nM
Cc1cc(Nc2ccc(F)cc2)nc(N2CCc3ccccc3C2C)n1.Cl (stereo not shown) [Example 58, hydrochloride] | > 25000 nM
Cc1cc(F)ccc1Nc1nc(N2CCc3ccccc3C2C)nc(C)c1C.Cl (stereo not shown) [Example 65, hydrochloride] | 1000 nM
Cc1nc(N2CCc3ccccc3[C@@H]2C)nc(Nc2ccc(F)cc2)c1C.Cl [Example 70, hydrochloride] | 3500 nM
Cc1nc(N2CCc3ccccc3C2C)nc(Nc2ccc(F)cc2)c1C.Cl (stereo not shown) [Example 68, hydrochloride] | 3100 nM
CCc1cc(N2CCc3ccccc3C2)nc(Nc2ccc(F)cc2)n1.Cl [Example 38, hydrochloride] | 2200 nM
CCc1nc(N(C)c2ccccc2)nc(N2CCc3ccccc3C2C)c1C.Cl (stereo not shown) [Example 28, hydrochloride] | > 15000 nM
Cc1cc(F)ccc1Nc1nc(N2CCc3ccsc3C2C)nc(C)c1C.Cl (stereo not shown) [Example 77, hydrochloride] | 3600 nM
Cc1cc(F)ccc1Nc1nc2c(c(N3CCc4ccccc4C3C)n1)CCCC2.Cl (stereo not shown) [Example 32, hydrochloride] | 1200 nM
Cc1cc(F)ccc1Nc1nc(N2CCc3ccccc3[C@H]2C)nc(C)c1C.Cl [Example 66, hydrochloride] | 900 nM
Cc1cc(F)ccc1Nc1nc(C)c(C)c(N2CCc3ccccc3[C@@H]2C)n1.Cl [Example 14, hydrochloride] | 700 nM
CCc1cc(N2CCc3ccccc3C2C)nc(Nc2ccc(F)cc2C)n1.Cl (stereo not shown) [Example 5, hydrochloride] | 1300 nM
Cc1cc(F)ccc1Nc1nc(C)c(C)c(N2CCc3ccccc3[C@H]2C)n1.Cl [Example 13, hydrochloride] | 500 nM
Cl.Fc1ccc(Nc2nc3c(c(N4CCc5ccccc5C4)n2)CCCC3)cc1 [Example 49, hydrochloride] | ~10800 nM
Cc1nc(N2CCc3ccsc3C2C)nc(Nc2ccc(F)cc2)c1C.Cl (stereo not shown) [Example 78, hydrochloride] | 8500 nM
Cc1nc(N(C)c2ccccc2)nc(N2CCc3ccccc3[C@H]2C)c1C.Cl [Example 19, hydrochloride] | 3900 nM
Cc1cc(N2CCc3ccccc3C2C)nc(Nc2ccc(F)cc2)n1.Cl (stereo not shown) [Example 3, hydrochloride] | 3500 nM
Cc1nc(Nc2ccc(F)cc2)nc(N2CCc3ccccc3[C@H]2C)c1C.Cl [Example 16, hydrochloride] | 1500 nM
Cc1nc(Nc2ccccc2)nc(N2CCc3ccccc3[C@@H]2C)c1C [Example 23, hydrochloride] | 2000 nM
Cc1cc(F)ccc1Nc1nc(C)c(C)c(N2CCc3ccsc3C2C)n1.Cl (stereo not shown) [Example 55, hydrochloride] | 2100 nM
Cc1nc(Nc2ccccc2)nc(N2CCc3ccccc3[C@H]2C)c1C [Example 22, hydrochloride] | 1400 nM
CCc1cc(N2CCc3ccccc3C2)nc(Nc2ccccc2C)n1.Cl [Example 40, hydrochloride] | 700 nM
CC1c2ccccc2CCN1c1nc(N(C)c2ccccc2)nc2c1CCC2 (stereo not shown) [Example 31, hydrochloride] | ~15000 nM
CN(c1ccccc1)c1nc2c(c(N3CCc4ccccc4C3)n1)CCCC2.Cl [Example 50, hydrochloride] | ~16900 nM
Cc1nc(Nc2ccc(F)cc2)nc(N2CCc3ccccc3C2)c1C.Cl [Example 42, hydrochloride] | 1500 nM
CCc1nc(N(C)c2ccccc2)nc(N2CCc3ccccc3C2)c1C.Cl [Example 46, hydrochloride] | ~19200 nM
Cc1cc(F)ccc1Nc1nc2c(c(N3CCc4ccccc4C3)n1)CCC2 [Example 47, hydrochloride] | ~5000 nM
Cc1cc(F)ccc1Nc1nc(C)c(C)c(N2CCc3ccccc3C2C)n1.Cl (stereo not shown) [Example 12, hydrochloride] | 600 nM
CCCc1cc(N2CCc3ccccc3C2C)nc(Nc2ccc(F)cc2)n1.Cl (stereo not shown) [Example 10, hydrochloride] | 10600 nM
CCc1cc(N2CCc3ccccc3C2)nc(Nc2ccc(F)cc2C)n1.Cl [Example 37, hydrochloride] | 700 nM

---

- Target Entity: proton pump(H^+ /K^+ ATPase)
- Test Method Notes: Inhibition of proton pump(H^+ /K^+ ATPase) activity
- Format: biochemical
- Conditions Used: pH 6.0, 37° C., 30 minutes preincubation and 30 minutes reaction; read-out: IC50 Test compound

Compound | IC50 [nM]
Cc1nc(Nc2ccc(F)cc2)nc(N2CCc3ccccc3[C@@H]2C)c1C.Cl [Example 17, hydrochloride] | 1800
CCc1nc(Nc2ccc(F)cc2)nc(N2CCc3ccccc3C2)c1C.Cl [Example 45, hydrochloride] | 3100
Cc1nc(N2CCc3ccccc3C2)nc(Nc2ccc(F)cc2)c1C.Cl [Example 75, hydrochloride] | 1200
Cc1cc(N2CCc3ccccc3C2)nc(Nc2ccc(F)cc2)n1.Cl [Example 35, hydrochloride] | 2500
Cc1cc(F)ccc1Nc1nc(N2CCc3ccccc3C2C)nc2c1CCCC2.Cl (centres unmarked) [Example 82, hydrochloride] | 1100
CCc1cc(N2CCc3ccccc3C2C)nc(Nc2ccc(F)cc2)n1.Cl (centres unmarked) [Example 6, hydrochloride] | 4300
